System: leukemia cells MV-4-11
Assay: Cell proliferation assay, CELL TITER-GLO (CTG) luminescence, MV-4-11
Format: cell-based
Details: Homo sapiens, MV4-11, cultured for 120 hrs
API: label(entry) gives true if the entry's IC50 is strictly smaller than 3 nM; on equality or larger values it gives false.

Examples from the recorded data:
N[C@@H]1c2ccccc2CC12CCN(c1ncc(C#CCOc3ccc4[nH]ncc4c3)nc1CO)CC2 ... true
N[C@@H]1c2ccccc2CC12CCN(c1ncc(C#CCOc3cccc(Cl)c3F)nc1CO)CC2 ... false
N[C@@H]1c2ccccc2CC12CCN(c1ncc(C#CCNc3ccc(C(F)(F)F)nc3)nc1CO)CC2 ... false
CC(=O)Nc1cccc(OCC#Cc2cnc(N3CCC4(CC3)Cc3ccccc3[C@H]4N)c(CO)n2)c1 ... false
Nc1cc(OCC#Cc2cnc(N3CCC4(CC3)Cc3ccccc3[C@H]4N)c(CO)n2)ccn1 ... true
CC(=O)Nc1cccc(NCC#Cc2cnc(N3CCC4(CC3)Cc3ccccc3[C@H]4N)c(CO)n2)c1 ... true

From here, focus on the item given below.
[in] In plain terms, does `COc1cccc(SCC#Cc2cnc(N3CCC4(CC3)Cc3ccccc3[C@H]4N)c(CO)n2)c1` come in under 3 nM for IC50?
[out] false
